Target: T1, Human CD27 ECD truncated (ECD 1-121, cleavage site, His6) (human)
T1 construct: also called human CD27 ECD with His Tag; CD27-His
T1 chain: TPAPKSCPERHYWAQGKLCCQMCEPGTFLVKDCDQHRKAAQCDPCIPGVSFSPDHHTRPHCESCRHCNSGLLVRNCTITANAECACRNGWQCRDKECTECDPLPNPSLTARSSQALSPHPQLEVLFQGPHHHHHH
Assay: ProteOn SPR, culture supernatants
So I've got a bunch of binders here, and I need their Kd values.
One number for each entry, in nM.

Below are worked cases with known answers.
binder="M164 (antibody, human IgG4, V domains shown, also called H196,L222) VH: QVQLVQSGAEVKKPGASVKVSCKASGYAFSSSWMNWVRQAPGQGLEWMGRIYSGDGDTNYNGKFKGRVTMTRDTSTSTVYMELSSLRSEDTAVYYCARSDYYGDYGFAYWGQGTLVTVSS VL: DIQMTQSPSSLSASVGDRVTITCKASQSVDYVGTSFMNWYQQKPGKAPKLLIYAASNLESGVPSRFSGSGSGTDFTLTISSLQPEDFATYYCQQSNEDPYTFGQGTKVEIK" readingunit=nM measurednumber=0.27
binder="M151 (antibody, human IgG4, V domains shown, also called H25,L224) VH: QVQLVQSGAEVKKPGASVKVSCKASGYAFSSSWMNWVRQAPGQGLEWMGRIYPGDGDTNYNGKFKGRVTMTRDTSTSTVYMELSSLRSEDTAVYYCARSDYYGDYGFAYWGQGTLVTVSS VL: DIQMTQSPSSLSASVGDRVAITCKASQSVDYYNSSFMNWYQQKPGKAPKLLIYAASNLESGVPSRFSGSGSGTDFTLTISSLQPEDFATYYCQQSNEDPYTFGQGTKVEIK" readingunit=nM measurednumber=1.07
binder="M153 (antibody, human IgG4, V domains shown, also called H25,L222) VH: QVQLVQSGAEVKKPGASVKVSCKASGYAFSSSWMNWVRQAPGQGLEWMGRIYPGDGDTNYNGKFKGRVTMTRDTSTSTVYMELSSLRSEDTAVYYCARSDYYGDYGFAYWGQGTLVTVSS VL: DIQMTQSPSSLSASVGDRVTITCKASQSVDYVGTSFMNWYQQKPGKAPKLLIYAASNLESGVPSRFSGSGSGTDFTLTISSLQPEDFATYYCQQSNEDPYTFGQGTKVEIK" readingunit=nM measurednumber=1.41
binder="M165 (antibody, human IgG4, V domains shown, also called H196,L221) VH: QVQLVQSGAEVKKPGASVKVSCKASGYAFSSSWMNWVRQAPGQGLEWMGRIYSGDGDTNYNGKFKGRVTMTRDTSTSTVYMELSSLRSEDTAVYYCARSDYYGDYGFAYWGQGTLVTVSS VL: DIQMTQSPSSLSASVGDRVTITCKASQSVDYFRTSFMNWYQQKPGKAPKLLIYAASNLESGVPSRFSGSGSGTDFTLTISSLQPEDFATYYCQQSNEDPYTFGQGTKVEIK" readingunit=nM measurednumber=0.18
binder="M149 (antibody, human IgG4, V domains shown, also called H25,L219) VH: QVQLVQSGAEVKKPGASVKVSCKASGYAFSSSWMNWVRQAPGQGLEWMGRIYPGDGDTNYNGKFKGRVTMTRDTSTSTVYMELSSLRSEDTAVYYCARSDYYGDYGFAYWGQGTLVTVSS VL: DIQMTQSPSSLSASVGDRVTITCKASQSVDYAGDSFMNWYQQKPGKAPKLLIYAASNLESGVPSRFSGSGSGTDFTLTISSLQPEDFATYYCQQSNEDPYTFGQGTKVEIK" readingunit=nM measurednumber=0.54
binder="M152 (antibody, human IgG4, V domains shown, also called H25,L223) VH: QVQLVQSGAEVKKPGASVKVSCKASGYAFSSSWMNWVRQAPGQGLEWMGRIYPGDGDTNYNGKFKGRVTMTRDTSTSTVYMELSSLRSEDTAVYYCARSDYYGDYGFAYWGQGTLVTVSS VL: DIQMTQSPSSLSASVGDRVTITCKASQSVDYWSDSFMNWYQQKPGKAPKLLIYAASNLESGVPSRFSGSGSGTDFTLTISSLQPEDFATYYCQQSNEDPYTFGQGTKVEIK" readingunit=nM measurednumber=1.54

Form field: reported Kd of M157 (antibody, human IgG4, V domains shown, also called H197,L220) VH: QVQLVQSGAEVKKPGASVKVSCKASGYAFSSSWMNWVRQAPGQGLEWMGRIYQGDGDTNYNGKFKGRVTMTRDTSTSTVYMELSSLRSEDTAVYYCARSDYYGDYGFAYWGQGTLVTVSS VL: DIQMTQSPSSLSASVGDRVTITCKASQSVDYAGDSYMNWYQQKPGKAPKLLIYAASNLESGVPSRFSGSGSGTDFTLTISSLQPEDFATYYCQQSNEDPYTFGQGTKVEIK 0.39
